system: SK-MEL-5 melanoma; assay: NCI tumour cell line growth inhibition, 48 h
Measured TGI values are reported for all entries that follow.
recorded.metric: TGI (µM)

INSERT INTO assay_data (molecule, recorded_metric, result_qualifier, experimental_result) VALUES
  ('COc1cccc(CC2Cc3ccccc3CC(=O)N2)c1 (stereo unspecified)', 'TGI', '=', 54.6),
  ('O=C(O)C12CCCC(CCC1)C2', 'TGI', '>', 100),
  ('Nc1nc(Cl)c2nnn(CC3CCC(CO)C3)c2n1 (stereo unspecified)', 'TGI', '>', 100),
  ('CSc1ccc(/C=C/c2ccnc3ccccc23)cc1', 'TGI', '=', 18.9),
  ('CC(=O)Nc1ccc(C(=O)NN2C(=O)C(Cl)C2c2ccccc2O)cc1 (stereo unspecified)', 'TGI', '>', 100),
  ('COc1cc(O)c2c(=O)cc(C3(O)C=CC(=O)C=C3)oc2c1', 'TGI', '=', 0.234);
